Reference for the values: patent US9073974B2

Reported pIC50 values for a set of binders
molecular target: T1, αvβ3 integrin (human, UniProt P06756 31-1048; P05106 27-788); test: flow cytometry, competition with biotinylated LXW7 on αvβ3-K562 cells; +++ = IC50 <1 µM
T1 construct: whole, on cells; Same entry used for αvβ3-K562, U-87 MG and A375M cells; also called αvβ3-K562; αvβ3 transfected K562 cells
T1 sequence (P06756 31-1048, chain 1 of 2): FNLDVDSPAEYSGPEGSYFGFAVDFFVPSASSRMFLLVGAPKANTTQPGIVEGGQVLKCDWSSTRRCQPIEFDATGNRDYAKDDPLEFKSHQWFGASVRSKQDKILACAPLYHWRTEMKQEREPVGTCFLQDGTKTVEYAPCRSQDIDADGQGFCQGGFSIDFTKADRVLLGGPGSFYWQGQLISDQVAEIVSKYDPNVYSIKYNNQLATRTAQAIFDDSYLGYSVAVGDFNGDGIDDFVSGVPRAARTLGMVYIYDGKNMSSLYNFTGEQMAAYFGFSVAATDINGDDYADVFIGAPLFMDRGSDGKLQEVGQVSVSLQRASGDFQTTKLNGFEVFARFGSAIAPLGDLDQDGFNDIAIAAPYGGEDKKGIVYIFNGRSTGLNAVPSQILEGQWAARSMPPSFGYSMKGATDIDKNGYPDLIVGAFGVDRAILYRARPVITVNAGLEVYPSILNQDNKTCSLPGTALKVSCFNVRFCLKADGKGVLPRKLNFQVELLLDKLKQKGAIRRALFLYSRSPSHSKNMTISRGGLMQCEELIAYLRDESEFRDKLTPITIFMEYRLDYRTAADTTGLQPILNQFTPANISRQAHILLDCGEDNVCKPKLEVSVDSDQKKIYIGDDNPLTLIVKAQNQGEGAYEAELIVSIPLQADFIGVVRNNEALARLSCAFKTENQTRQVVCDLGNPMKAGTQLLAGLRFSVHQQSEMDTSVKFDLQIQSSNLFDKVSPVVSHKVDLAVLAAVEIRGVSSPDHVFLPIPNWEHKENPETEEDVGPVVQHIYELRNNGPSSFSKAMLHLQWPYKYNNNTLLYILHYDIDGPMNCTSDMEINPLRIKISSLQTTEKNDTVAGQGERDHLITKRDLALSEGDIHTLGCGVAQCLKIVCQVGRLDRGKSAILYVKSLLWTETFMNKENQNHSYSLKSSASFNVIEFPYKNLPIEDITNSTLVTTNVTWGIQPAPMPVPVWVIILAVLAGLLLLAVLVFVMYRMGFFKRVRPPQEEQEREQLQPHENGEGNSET
T1 sequence (P05106 27-788, chain 2 of 2): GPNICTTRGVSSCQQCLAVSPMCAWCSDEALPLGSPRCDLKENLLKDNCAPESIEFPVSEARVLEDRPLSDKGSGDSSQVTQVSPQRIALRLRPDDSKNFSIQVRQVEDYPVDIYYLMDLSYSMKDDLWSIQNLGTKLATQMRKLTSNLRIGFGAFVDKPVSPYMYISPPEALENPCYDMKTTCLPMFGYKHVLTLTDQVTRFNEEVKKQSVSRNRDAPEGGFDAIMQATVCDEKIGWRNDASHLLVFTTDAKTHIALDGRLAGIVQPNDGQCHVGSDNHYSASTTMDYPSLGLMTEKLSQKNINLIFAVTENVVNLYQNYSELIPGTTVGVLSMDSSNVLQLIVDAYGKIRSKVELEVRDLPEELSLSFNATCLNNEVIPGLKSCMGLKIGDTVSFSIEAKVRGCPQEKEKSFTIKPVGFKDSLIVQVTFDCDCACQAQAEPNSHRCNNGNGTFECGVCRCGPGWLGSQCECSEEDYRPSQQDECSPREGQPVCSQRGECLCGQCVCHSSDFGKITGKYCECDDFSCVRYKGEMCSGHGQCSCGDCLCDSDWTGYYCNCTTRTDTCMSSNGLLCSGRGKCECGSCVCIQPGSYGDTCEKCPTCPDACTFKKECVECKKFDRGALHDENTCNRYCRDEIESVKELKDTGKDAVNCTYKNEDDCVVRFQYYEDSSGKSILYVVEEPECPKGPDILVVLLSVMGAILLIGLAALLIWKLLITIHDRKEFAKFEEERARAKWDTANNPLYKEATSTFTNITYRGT
pIC50: −log10 of the molar value. Bridge positions count the residues as written; N and C are the ends. Square brackets hold non-standard residues; d marks the D form. Primed or numbered codes have the meaning given here. * marks the point of attachment. Ebes(3) = 2,2'-ethylenedioxy bis(ethylamine) monosuccinamide, NCCOCCOCCNC(=O)CCC(=O)*

Please review the entries below; each comes with its answer.
INSERT INTO assay_data (binder, result) VALUES
  ('{biphenyl‑4‑carbonyl}-[dC]GRGD[dD][dV][dC]-NH2 (disulfide 1-8) [LXW84]', '> 6.00'),
  ('{2‑naphthoyl}-[dC]GRGD[dD][dV][dC]-NH2 (disulfide 1-8) [LXW89]', '> 6.00'),
  ('{3,5‑dihydroxy benzoyl}-[dC]GRGD[dD][dV][dC]-NH2 (disulfide 1-8) [LXW83]', '> 6.00');

So what's the measured pIC50 for this one? {3‑phenyl propionyl}-[dC]GRGD[dD][dV][dC]-NH2 (disulfide 1-8) [LXW80]
> 6.00

Can you check {Ebes(3)}-[dC]GRGD[dD][dV][dC]-NH2 (disulfide 1-8; SMILES CC(C)[C@H]1NC(=O)[C@@H](CC(=O)O)NC(=O)[C@H](CC(=O)O)NC(=O)CNC(=O)[C@H](CCCNC(=N)N)NC(=O)CNC(=O)[C@H](NC(=O)CCC(=O)NCCOCCOCCN)CSSC[C@H](C(N)=O)NC1=O) [LXW57] next?
> 6.00
